# Tested on: NCI-H322M lung
# experiment: NCI-60 one-dose screen, 48 h (100 = growth as untreated, 0 = no growth, -100 = all killed)
# experimental.conditions: 10 µM unless noted
About 83,000 compounds went through this panel and 20% of them were active in at least one assay; those are over-represented in the sample as a whole.
What growth was measured for each of the following?
Answers are plain numbers, in %.

# example entries with known answers
{"smiles.representation": "CN1CCN(c2ccc(Nc3nc(NCCCNS(=O)(=O)c4ccc(Cl)cc4)c4sccc4n3)cc2)CC1", "growth, %": 33.7}
{"smiles.representation": "O=c1oc2ccc(-c3ccc(F)cc3F)cc2c(=O)n1-c1ccc(Br)cc1F", "growth, %": 71.7}

Consider the additional molecule presented here.
Entry under review: `CSc1ccc(C(=NNS(=O)(=O)c2ccc(C)cc2)c2ccc(Cl)cc2)cc1` . Reported growth?
92.7
